Molecular target: rat TRPM8 channel (rTRPM8) (Rattus norvegicus, UniProt Q8R455)
Construct: expressed in transfected cells
Sequence (Q8R455 whole entry): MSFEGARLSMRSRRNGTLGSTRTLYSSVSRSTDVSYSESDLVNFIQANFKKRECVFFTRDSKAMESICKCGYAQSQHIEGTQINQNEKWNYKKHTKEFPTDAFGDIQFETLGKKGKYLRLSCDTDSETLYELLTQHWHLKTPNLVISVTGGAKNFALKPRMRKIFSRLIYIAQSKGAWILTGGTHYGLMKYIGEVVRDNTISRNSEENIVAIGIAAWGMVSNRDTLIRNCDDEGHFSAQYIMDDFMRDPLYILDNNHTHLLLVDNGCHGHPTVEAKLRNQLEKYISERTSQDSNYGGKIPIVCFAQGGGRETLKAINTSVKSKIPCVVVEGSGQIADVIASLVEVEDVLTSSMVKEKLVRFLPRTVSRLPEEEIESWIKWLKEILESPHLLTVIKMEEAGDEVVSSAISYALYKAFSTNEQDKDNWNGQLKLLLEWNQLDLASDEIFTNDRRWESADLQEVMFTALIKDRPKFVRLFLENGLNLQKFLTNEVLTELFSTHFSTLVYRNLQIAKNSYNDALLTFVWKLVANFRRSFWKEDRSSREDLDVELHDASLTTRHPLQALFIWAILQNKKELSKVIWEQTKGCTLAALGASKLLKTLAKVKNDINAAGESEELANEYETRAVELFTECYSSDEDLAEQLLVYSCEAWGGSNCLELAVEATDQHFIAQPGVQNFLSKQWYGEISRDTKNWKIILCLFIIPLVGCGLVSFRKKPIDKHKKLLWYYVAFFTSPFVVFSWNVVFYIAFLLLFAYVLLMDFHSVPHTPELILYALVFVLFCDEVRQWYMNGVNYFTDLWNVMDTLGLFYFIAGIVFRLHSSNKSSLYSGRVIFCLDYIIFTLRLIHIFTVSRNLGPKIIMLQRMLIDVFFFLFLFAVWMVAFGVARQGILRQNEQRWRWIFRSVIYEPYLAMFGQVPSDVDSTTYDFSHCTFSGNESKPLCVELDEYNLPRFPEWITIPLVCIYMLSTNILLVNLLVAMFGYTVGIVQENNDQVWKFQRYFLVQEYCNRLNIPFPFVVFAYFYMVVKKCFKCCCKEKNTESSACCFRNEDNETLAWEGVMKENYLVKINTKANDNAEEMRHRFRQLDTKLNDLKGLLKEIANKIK
Assay: Ca2+ microfluorimetry, menthol-induced Ca2+ entry in HEK293 cells overexpressing rTRPM8
Type: cell-based
Details: Table 1; rTRPM8, HEK293, activation by 100 µM menthol
pIC50: −log10 of the molar value.
Readout label: pIC50

Check out these entries, answers already filled in.
Compound	Measurement target	pIC50
CC(C)CNC(=O)C1(Cc2ccccc2)CC(=O)N1C[C@H](Cc1ccccc1)N(Cc1ccccc1)Cc1ccccc1 (stereo partly drawn)	rat TRPM8 channel (rTRPM8) (Rattus norvegicus, UniProt Q8R455)	6.15
O=C1CC(Cc2ccccc2)(C(=O)Nc2cccnc2)N1C[C@H](Cc1ccccc1)N(Cc1ccccc1)Cc1ccccc1 (stereo partly drawn)	rat TRPM8 channel (rTRPM8) (Rattus norvegicus, UniProt Q8R455)	4.93

(a) O=C1CC(Cc2ccccc2)(C(=O)NCc2cccnc2)N1C[C@H](Cc1ccccc1)N(Cc1ccccc1)Cc1ccccc1 (stereo partly drawn)
(b) O=C1CC(Cc2ccccc2)(C(=O)NCc2ccccc2)N1C[C@H](Cc1ccccc1)N(Cc1ccccc1)Cc1ccccc1 (stereo partly drawn)
(c) O=C1CC(Cc2ccccc2)(C(=O)NCc2ccccn2)N1C[C@H](Cc1ccccc1)N(Cc1ccccc1)Cc1ccccc1 (stereo partly drawn)
(d) COC(=O)C1(Cc2ccccc2)CC(=O)N1C[C@H](Cc1ccccc1)N(Cc1ccccc1)Cc1ccccc1 (stereo partly drawn)
Inquiry: Falling order of pIC50, please. Put the labels in the requested order and write them down.
Reply text: d, b, c, a
